Entries and their microsomal CLint at 1 μM
target: CYP 2C9 (Homo sapiens); construct: The experiment was conducted in human liver microsomes; from tissue; host or cells: human liver microsomes; assay: Metabolic stability in human liver microsomes with CYP 2C9 inhibitor Sulfaphenazole; type: in vitro ADME; details: pH 7.4, with Sulfaphenazole 20 μM, 1 μM + Sulfaphenazole (20 μM), read-out: mCLint
Sequence (P11712 whole entry): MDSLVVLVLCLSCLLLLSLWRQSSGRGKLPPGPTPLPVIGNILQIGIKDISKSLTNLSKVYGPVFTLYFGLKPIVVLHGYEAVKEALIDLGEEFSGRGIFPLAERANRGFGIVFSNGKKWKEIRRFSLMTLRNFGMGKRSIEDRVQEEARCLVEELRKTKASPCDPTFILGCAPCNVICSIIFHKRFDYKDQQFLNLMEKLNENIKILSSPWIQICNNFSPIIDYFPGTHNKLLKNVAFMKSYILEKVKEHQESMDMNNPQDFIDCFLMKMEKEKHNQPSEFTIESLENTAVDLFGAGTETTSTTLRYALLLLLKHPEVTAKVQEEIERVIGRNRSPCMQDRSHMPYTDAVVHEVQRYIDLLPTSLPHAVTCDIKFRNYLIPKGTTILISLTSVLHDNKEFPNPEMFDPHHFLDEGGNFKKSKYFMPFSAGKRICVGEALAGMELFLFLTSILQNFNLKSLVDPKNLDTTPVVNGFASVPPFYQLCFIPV
All answers are understood in µL/min/mg, so give the number only.

O=C(O)Cc1ccccc1Nc1c(Cl)cccc1Cl [Diclofenac, reference compound]
10.6

Kindly review the next compound as well.
For record O=C1Nc2ccccc2N(C(=O)CCl)c2ccc(F)cc21 the listed microsomal CLint at 1 μM is 18

* * *

assay: Metabolic stability assay in human liver microsomes in the presence of specific cytochrome P450 inhibitors (arm without inhibitor, summary statements); details: human liver microsomes; 1 μM; no inhibitor
ASSAY_ENDPOINT: % rem @ 30 min (%)
Express it in %; write the number only.

Take a look at these entries with their results.
COc1ccc2[nH]c([S+]([O-])Cc3ncc(C)c(OC)c3C)nc2c1 (stereo not shown) [Omeprazole, reference compound]
60.1
O=C1Nc2ccccc2N(C(=O)CCl)c2ccc(F)cc21
91.3

Turning to the following molecule.
# molecule O=C(O)Cc1ccccc1Nc1c(Cl)cccc1Cl [Diclofenac, reference compound] ; its % rem @ 30 min = 10.5

* * *

experiment: Metabolic stability assay in human liver microsomes in the presence of specific cytochrome P450 inhibitors (arm without inhibitor, summary statements); conditions: human liver microsomes; 1 μM; no inhibitor
Reported values of % rem @ 15 min for individual entries

Completed entries (count: 3):
O=C(O)Cc1ccccc1Nc1c(Cl)cccc1Cl [Diclofenac, reference compound]
28.3%
Cc1ncc2n1-c1ccc(Cl)cc1C(c1ccccc1F)=NC2
2.77%
O=C1Nc2ccccc2N(C(=O)CCl)c2ccc(F)cc21
92.9%

Would you kindly look at the next entry?
Entry under test: COc1ccc2[nH]c([S+]([O-])Cc3ncc(C)c(OC)c3C)nc2c1 (stereo not shown) [Omeprazole, reference compound] . Its % rem @ 15 min was 71.1%

* * *

assay: in vitro; conditions: human, microsomes, pH 7.4
ASSAY_ENDPOINT: microsomal CLint at 1 μM (µL/min/mg)
State just the number; it will be interpreted in µL/min/mg.

# microsomal CLint at 1 μM of O=C1Nc2ccccc2N(C(=O)CCl)c2ccc(F)cc21 [Compound 6] = 14.4

* * *

Here, each record is paired with measured half-life at 1 µM data.
biological target: CYP 1A2 (Homo sapiens, UniProt P05177); construct: The experiment was conducted in human liver microsomes; from tissue; host or cells: human liver microsomes; experiment: Metabolic stability in human liver microsomes with CYP 1A2 inhibitor Furafylline; assay type: in vitro ADME; settings: pH 7.4, with Furafylline 20 μM, 1 μM + Furafylline (20 μM)
Sequence (P05177 whole entry): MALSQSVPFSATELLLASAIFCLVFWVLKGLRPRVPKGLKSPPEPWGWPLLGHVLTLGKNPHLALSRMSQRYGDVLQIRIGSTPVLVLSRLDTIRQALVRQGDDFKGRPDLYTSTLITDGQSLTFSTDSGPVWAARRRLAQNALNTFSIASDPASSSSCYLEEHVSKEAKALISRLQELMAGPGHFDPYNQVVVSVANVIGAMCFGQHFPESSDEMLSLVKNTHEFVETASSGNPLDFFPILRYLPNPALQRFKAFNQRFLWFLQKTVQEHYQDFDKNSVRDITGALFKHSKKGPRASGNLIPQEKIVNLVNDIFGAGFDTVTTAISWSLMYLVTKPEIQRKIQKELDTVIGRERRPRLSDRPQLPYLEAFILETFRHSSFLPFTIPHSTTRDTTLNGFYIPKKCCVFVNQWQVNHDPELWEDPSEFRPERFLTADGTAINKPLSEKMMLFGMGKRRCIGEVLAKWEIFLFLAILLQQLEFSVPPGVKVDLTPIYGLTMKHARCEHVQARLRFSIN
The response must be a number in h with no trailing unit.

O=C1Nc2ccccc2N(C(=O)CCl)c2ccc(F)cc21 [Compound 6]
1.03

Per the record, CCOc1ccc(NC(C)=O)cc1 [Phenacetin, reference compound] has half-life at 1 µM of 1.7

* * *

assay: in vitro; details: rat, microsomes, pH 7.4
ASSAY_ENDPOINT: microsomal CLint at 1 μM (µL/min/mg)
Please give a number only; it is taken to be in µL/min/mg.

Reported microsomal CLint at 1 μM for O=C1Nc2ccccc2N(C(=O)CCl)c2ccc(F)cc21 was 14.6

* * *

System: MDR1
Assay: in vitro
Design: dose or concentration left out as unconfirmed
Conditions: dog, MDCK-MDR1
Procedure: Digoxin is used as reference and lucifer yellow is used as the integrity marker. […] Papp, efflux ratio and percent recovery are calculated.
ASSAY_ENDPOINT: Papp A→B at 60 min (×10⁻⁶ cm/s)
Give the value in ×10⁻⁶ cm/s but do not write ×10⁻⁶ cm/s after it.

// solved cases for Papp A→B at 60 min follow
O=C1Nc2ccccc2N(C(=O)CCl)c2ccc(F)cc21 [Compound 6]
26
CC(C)NCC(O)COc1cccc2ccccc12 (stereo not drawn) [Propranolol]
47.5

Input C[C@H]1O[C@@H](O[C@H]2[C@@H](O)C[C@H](O[C@H]3[C@@H](O)C[C@H](O[C@H]4CC[C@@]5(C)[C@H](CC[C@@H]6[C@@H]5C[C@@H](O)[C@]5(C)[C@@H](C7=CC(=O)OC7)CC[C@]65O)C4)O[C@@H]3C)O[C@@H]2C)C[C@H](O)[C@@H]1O [Digoxin] . Output Papp A→B at 60 min: 0.28

* * *

tested on: MDR1 (P-gp); assay: in vitro; parameters: dose or concentration left out as unconfirmed; conditions: dog, MDCK-MDR1, % recovery Apical concentration-Basal concentration
The following molecules are listed with their measured recovery at 60 min values.
# unit: % | format: bare number

CC(C)NCC(O)COc1cccc2ccccc12 (stereo not drawn)
71.5
C[C@H]1O[C@@H](O[C@H]2[C@@H](O)C[C@H](O[C@H]3[C@@H](O)C[C@H](O[C@H]4CC[C@@]5(C)[C@H](CC[C@@H]6[C@@H]5C[C@@H](O)[C@]5(C)[C@@H](C7=CC(=O)OC7)CC[C@]65O)C4)O[C@@H]3C)O[C@@H]2C)C[C@H](O)[C@@H]1O
99.9

Turning now to a further record.
O=C1Nc2ccccc2N(C(=O)CCl)c2ccc(F)cc21 yielded recovery at 60 min of 49.1

* * *

assay: in vitro; conditions: rat, microsomes, pH 7.4
ASSAY_ENDPOINT: half-life at 1 µM (h)
Please state the figure in h; there is no need to write the unit.

// half-life at 1 µM lookup, molecule = O=C1Nc2ccccc2N(C(=O)CCl)c2ccc(F)cc21 [Compound 6] , result: 1.58

* * *

tested on: MDR1; experiment: in vitro; set-up: dose or concentration left out as unconfirmed; conditions: dog, MDCK-MDR1
// reported Papp B→A at 60 min per item
# number only, unit ×10⁻⁶ cm/s dropped from output

O=C1Nc2ccccc2N(C(=O)CCl)c2ccc(F)cc21
31.6
CC(C)NCC(O)COc1cccc2ccccc12 (stereo not drawn)
48.2

Sample C[C@H]1O[C@@H](O[C@H]2[C@@H](O)C[C@H](O[C@H]3[C@@H](O)C[C@H](O[C@H]4CC[C@@]5(C)[C@H](CC[C@@H]6[C@@H]5C[C@@H](O)[C@]5(C)[C@@H](C7=CC(=O)OC7)CC[C@]65O)C4)O[C@@H]3C)O[C@@H]2C)C[C@H](O)[C@@H]1O ; Papp B→A at 60 min observed: 15.2

* * *

system: MDR1 (P-gp); assay: in vitro; set-up: dose or concentration left out as unconfirmed; conditions: dog, MDCK-MDR1, % recovery Basal concentration-Apical concentration
ASSAY_ENDPOINT: recovery at 60 min

Example entries begin here.
CC(C)NCC(O)COc1cccc2ccccc12 (stereo not drawn)
~100%
C[C@H]1O[C@@H](O[C@H]2[C@@H](O)C[C@H](O[C@H]3[C@@H](O)C[C@H](O[C@H]4CC[C@@]5(C)[C@H](CC[C@@H]6[C@@H]5C[C@@H](O)[C@]5(C)[C@@H](C7=CC(=O)OC7)CC[C@]65O)C4)O[C@@H]3C)O[C@@H]2C)C[C@H](O)[C@@H]1O
~100%

--- query ---
Summary: O=C1Nc2ccccc2N(C(=O)CCl)c2ccc(F)cc21 , MDR1 (P-gp), recovery at 60 min = ~100%

* * *

assay: Metabolic stability assay in human liver microsomes in the presence of specific cytochrome P450 inhibitors (arm without inhibitor, summary statements); settings: human liver microsomes; 1 μM; no inhibitor
ASSAY_ENDPOINT: % rem @ 45 min (%)
Respond numerically; units are % and should not be typed.

Worked set:
O=C(O)Cc1ccccc1Nc1c(Cl)cccc1Cl [Diclofenac, reference compound]
4.93
O=C1Nc2ccccc2N(C(=O)CCl)c2ccc(F)cc21
67.8

Turning now to a further compound:
Entry COc1ccc2[nH]c([S+]([O-])Cc3ncc(C)c(OC)c3C)nc2c1 (stereo not shown) [Omeprazole, reference compound] , % rem @ 45 min reported as 28.8

* * *

% rem @ 5 min: recorded values
assay: Metabolic stability assay in human liver microsomes in the presence of specific cytochrome P450 inhibitors (arm without inhibitor, summary statements); details: human liver microsomes; 1 μM; no inhibitor
Give your result in % as a bare value.

COc1ccc2[nH]c([S+]([O-])Cc3ncc(C)c(OC)c3C)nc2c1 (stereo not shown) [Omeprazole, reference compound]
95.9

For this molecule ( O=C(O)Cc1ccccc1Nc1c(Cl)cccc1Cl [Diclofenac, reference compound] ), measured % rem @ 5 min is 49.5

Looking up O=C1Nc2ccccc2N(C(=O)CCl)c2ccc(F)cc21 , I found its % rem @ 5 min recorded as 93.5

Entry Cc1ncc2n1-c1ccc(Cl)cc1C(c1ccccc1F)=NC2 — recorded % rem @ 5 min = 22.0

* * *

test: Metabolic stability assay in human liver microsomes in the presence of specific cytochrome P450 inhibitors (arm without inhibitor, summary statements); settings: human, microsomes, pH 7.4
ASSAY_ENDPOINT: half-life at 1 µM (min)
Answer in min, number only, no unit symbol.

Recorded half-life at 1 µM (compound Cc1ncc2n1-c1ccc(Cl)cc1C(c1ccccc1F)=NC2 ): 5.21
